Assay: in vitro
Format: in vitro ADME
Conditions: human, plasma, pH 7.4, % Bound R3
QUANTITY: fraction unbound at 4 h, 5 µM
Output: the number by itself.

query: Would you mind telling me what fraction unbound at 4 h, 5 µM value was observed for CC(=O)CC(c1ccccc1)c1c(O)c2ccccc2oc1=O (stereo not shown) ?
result: 0.011

====

Assay: in vitro
Format: in vitro ADME
Details: human, plasma, pH 7.4, % Bound Mean ± SD
QUANTITY: fraction unbound at 4 h, 5 µM
# respond with the number and nothing more

query: Tell me the measured fraction unbound at 4 h, 5 µM of CC(=O)CC(c1ccccc1)c1c(O)c2ccccc2oc1=O (stereo not shown) [Warfarin] , please.
result: 0.011
